# assayed_system: Amine oxidase [flavin-containing] B (Homo sapiens, UniProt P27338)
# Sequence (P27338 whole entry): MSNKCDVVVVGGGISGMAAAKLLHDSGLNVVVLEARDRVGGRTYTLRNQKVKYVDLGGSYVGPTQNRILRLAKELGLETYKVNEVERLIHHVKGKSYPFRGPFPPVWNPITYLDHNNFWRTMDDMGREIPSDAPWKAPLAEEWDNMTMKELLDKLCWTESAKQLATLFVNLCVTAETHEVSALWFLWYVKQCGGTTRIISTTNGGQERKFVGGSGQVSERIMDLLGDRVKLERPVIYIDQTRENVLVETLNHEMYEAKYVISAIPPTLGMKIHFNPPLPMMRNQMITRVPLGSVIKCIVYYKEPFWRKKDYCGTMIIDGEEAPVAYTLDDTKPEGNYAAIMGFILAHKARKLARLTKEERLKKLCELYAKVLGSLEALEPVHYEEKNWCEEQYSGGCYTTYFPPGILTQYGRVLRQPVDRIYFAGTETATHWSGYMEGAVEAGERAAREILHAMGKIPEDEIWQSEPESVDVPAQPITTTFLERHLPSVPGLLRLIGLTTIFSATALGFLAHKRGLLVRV
measured_property: pIC50
Scale for pIC50: -log10 of concentration given in mol/L; no unit attached.

Provide value of pIC50 for this record tested with Amine oxidase [flavin-containing] B (Homo sapiens, UniProt P27338): `Cc1ccc(C[n+]2ccc(COc3ccc4c(C)cc(=O)oc4c3)cc2)cc1.[Br-]`
5.41

Provide value of pIC50 for this record tested with Amine oxidase [flavin-containing] B (Homo sapiens, UniProt P27338): `Cc1cc(=O)oc2cc(OCc3cc[n+](Cc4cccc(F)c4)cc3)ccc12.[Br-]`
5.54

Provide value of pIC50 for this record tested with Amine oxidase [flavin-containing] B (Homo sapiens, UniProt P27338): `Cc1cc(=O)oc2cc(OCc3cc[n+](Cc4ccc(Br)cc4)cc3)ccc12.[Br-]`
5.41

Provide value of pIC50 for this record tested with Amine oxidase [flavin-containing] B (Homo sapiens, UniProt P27338): `Cc1cc(=O)oc2cc(OCc3cc[n+](Cc4ccc([N+](=O)[O-])cc4)cc3)ccc12.[Br-]`
5.16

Provide value of pIC50 for this record tested with Amine oxidase [flavin-containing] B (Homo sapiens, UniProt P27338): `Cc1cccc(C[n+]2ccc(COc3ccc4c(C)cc(=O)oc4c3)cc2)c1.[Br-]`
5.80

* * *

# assayed_system: Amine oxidase [flavin-containing] A (Homo sapiens, UniProt P21397)
# Sequence (P21397 whole entry): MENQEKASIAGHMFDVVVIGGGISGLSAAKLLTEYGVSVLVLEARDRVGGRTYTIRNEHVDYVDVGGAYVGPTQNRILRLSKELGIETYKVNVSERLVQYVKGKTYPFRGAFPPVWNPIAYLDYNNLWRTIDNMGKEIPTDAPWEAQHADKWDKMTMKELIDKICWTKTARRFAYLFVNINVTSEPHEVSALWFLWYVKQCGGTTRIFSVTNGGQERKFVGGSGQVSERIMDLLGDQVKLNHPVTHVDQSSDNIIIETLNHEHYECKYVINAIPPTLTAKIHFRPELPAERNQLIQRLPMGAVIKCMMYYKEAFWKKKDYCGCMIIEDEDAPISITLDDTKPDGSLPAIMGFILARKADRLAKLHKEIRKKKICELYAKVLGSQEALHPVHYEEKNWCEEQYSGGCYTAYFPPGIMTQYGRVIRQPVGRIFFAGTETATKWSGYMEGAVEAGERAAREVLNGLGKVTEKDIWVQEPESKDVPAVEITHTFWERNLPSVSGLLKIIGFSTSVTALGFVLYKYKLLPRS
# test: Inhibition of recombinant human MAOA at 10 uM using p-tyramine as substrate after 15 mins by resorufin dye-based fluorometric method relative to control
# settings: 0.25 h
measured_property: inhibition at 10 µM (%)
Numbers only; they are read as %.

Value lookup for inhibition at 10 µM; key = `Cc1cc(=O)oc2cc(OCc3cc[n+](Cc4cccc(F)c4)cc3)ccc12.[Br-]`
34.3

Value lookup for inhibition at 10 µM; key = `Cc1cc(=O)oc2cc(OCc3cc[n+](Cc4ccccc4F)cc3)ccc12.[Br-]`
11.5

Value lookup for inhibition at 10 µM; key = `Cc1cc(=O)oc2cc(OCc3cc[n+](Cc4ccc([N+](=O)[O-])cc4)cc3)ccc12.[Br-]`
18.6

Value lookup for inhibition at 10 µM; key = `Cc1cccc(C[n+]2ccc(COc3ccc4c(C)cc(=O)oc4c3)cc2)c1.[Br-]`
14.8

Value lookup for inhibition at 10 µM; key = `Cc1cc(=O)oc2cc(OCc3cc[n+](Cc4ccc(Br)cc4)cc3)ccc12.[Br-]`
29.9

Value lookup for inhibition at 10 µM; key = `Cc1cc(=O)oc2cc(OCc3cc[n+](Cc4cccc(Br)c4)cc3)ccc12.[Br-]`
44.6

Value lookup for inhibition at 10 µM; key = `Cc1ccccc1C[n+]1ccc(COc2ccc3c(C)cc(=O)oc3c2)cc1.[Br-]`
13.9

Value lookup for inhibition at 10 µM; key = `Cc1cc(=O)oc2cc(OCc3cc[n+](Cc4ccccc4Br)cc3)ccc12.[Br-]`
15.1

Value lookup for inhibition at 10 µM; key = `Cc1cc(=O)oc2cc(OCc3cc[n+](Cc4ccccc4)cc3)ccc12.[Br-]`
5.04

Value lookup for inhibition at 10 µM; key = `Cc1ccc(C[n+]2ccc(COc3ccc4c(C)cc(=O)oc4c3)cc2)cc1.[Br-]`
9.05
